Recorded TGI for the following compounds
tested on: CCRF-CEM leukemia; assay: NCI tumour cell line growth inhibition, 48 h
reported metric: TGI

* O=c1cc(-c2cc(O)c(O)c(-c3c(O)cc4oc(-c5ccc(O)c(O)c5)cc(=O)c4c3O)c2)oc2cc(O)cc(O)c12 | > 25 µM
* COc1ccc(C2c3cc4c(cc3OC(N3CCOCC3)C2C)OCO4)c(OC)c1OC (configuration not stated) | 55.4 µM
* CCOC(=O)C(NC(=O)c1nc[nH]c1[N+](=O)[O-])C(C)C (configuration not stated) | > 100 µM
* COC(=O)C1(Cc2ccc3c(c2)CCC3)Cc2ccccc2C1 | 30.8 µM
* N#Cc1ccc(NC(=O)C(CC(=O)OCc2ccccc2)NC(=O)OCc2ccccc2)cc1 (configuration not stated) | > 100 µM
* Cn1cc(C2=C(c3cn(C4CCN(Cc5ccccn5)CC4)c4ccccc34)C(=O)NC2=O)c2ccccc21 | > 100 µM
* CC(=O)c1ccc(O)c(CN(C2CCCCC2)C2CCCCC2)c1O | 1.88 µM
* CC12CCCC3(CC(=O)C(C)(C)C3C(=O)C1)C2 (configuration not stated) | > 100 µM
* Oc1ccccc1-c1nn(CNc2ccccc2Cl)c(=S)o1 | 55.4 µM
* CN(C)C(=S)/N=c1\ssc(=S)n1Cc1ccncc1 | 57 µM
* C=C1c2nc3ccccc3n2C=C(c2ccc(Cl)cc2)N1c1ccc(OC)cc1 | > 100 µM
* c1ccc(N2N=C(c3ccco3)CC2c2ccco2)cc1 (configuration not stated) | > 100 µM
* CCNC(=O)c1noc(-c2cc(C(C)C)c(O)cc2O)c1-c1ccc(CN2CCOCC2)cc1 | > 75.4 µM
* CCCCn1c(-c2ccc([N+](=O)[O-])cc2)cs/c1=N/N=C1\C(=O)Nc2ccc(Br)cc21 | > 100 µM
* CCCCCCCCCCCCCCCC[N+]1(C)CCOCC1 | 3.02 µM
* C/C(=N/NC(=O)C[N+](C)(C)C)C(CN(C)C)C(=O)Nc1ccccc1 (configuration not stated) | > 100 µM
* C=C1C(=O)O[C@H]2[C@H]1CC/C(COC(=O)NCC(C)c1ccc(CC(C)C)cc1)=C\CC[C@@]1(C)O[C@@H]21 (some centres not stated) | 3.61 µM
* c1c2c(cc(-n3nnc4c3CCCCCC4)c1-n1nnc3c1CCCCCC3)CCCCCC2 | 27.3 µM
* CO[C@]12C[C@H](CNC(=O)c3ccc[nH]3)O[C@H]1NC(=O)N2 | > 100 µM
* NS(=O)(=O)c1cccc(NC(=S)NC(=O)Nc2ccc(Cl)c(Cl)c2)c1 | 78.1 µM
* C=CC(OCC)(OCC)OCC | > 100 µM
* O=C(Nc1noc(-c2ccccc2)n1)c1ccccc1CNc1noc(-c2ccccc2)n1 | > 100 µM
* CCOP(=O)(/C=C\n1ccc(N)nc1=O)OCC | > 100 µM
* CCCCN(CC)CC(C(C)=O)c1c(O)c2ccccc2oc1=O (configuration not stated) | > 100 µM
* COc1ccc(CN2C3CC2CN(c2ccc(-c4cc(OCC(C)(C)O)cn5ncc(C#N)c45)cn2)C3)cn1 | > 100 µM
* COc1ccc(/C(=N\NC(=S)NN)C(c2ccc(OC)cc2)C2C(=O)Oc3ccccc32)cc1 (configuration not stated) | > 100 µM
* O=c1oc2ccccc2[n+]([O-])c1-c1ccccc1 | > 100 µM
* COc1cnc2c(c1)C(=O)c1c-2n(CCCN2CCN(C)CC2)c(=O)c2cc([N+](=O)[O-])ccc12 | 0.834 µM
* CC1(C)CC2C(=O)c3ccccc3NC2c2ccccc21 (configuration not stated) | > 100 µM
* CC(=O)OC(Cn1cncn1)(Cn1cncn1)c1ccc(Cl)cc1Cl | > 100 µM
* O=C(N[C@@H](C[Se][Se]C[C@H](NC(=O)c1ccc(Br)cc1F)C(=O)O)C(=O)O)c1ccc(Br)cc1F | > 100 µM
* c1c[nH]c(CN2CCOCC2)n1 | > 100 µM
* COC(=O)C1(C(=O)OC)CC(=O)c2cc3c(cc2-c2c(cc(OC)c(OC)c2OC)C1)OCO3 | > 211 µM
* S=c1cc(-c2ccc3c(c2)OCO3)s[nH]1 | > 100 µM
* O=S(=O)(CCCl)c1ccc(Cl)cc1 | 20.9 µM
* O=C(O)[C@@H](Cc1ccc2ccccc2c1)NC(=O)n1c2ccccc2c2ccccc21 | 18 µM
* CN(C)CCNC(=O)Cn1ccc(=O)c2c([N+](=O)[O-])cccc21 | > 100 µM
* C(=N\Nc1nnn(Cc2ccccc2)n1)/c1ccccc1 | > 47.5 µM
* COC(=O)c1cc(C#N)[nH]c1-c1cc(Br)cs1 | 39.3 µM
* O=C1c2ccccc2NC(=S)[C@@H]2CCCN12 | > 100 µM
* C[n+]1c(-c2ccc(/C=C/C=N\NC(=O)c3ccc(C(=O)N/N=C\C=C\c4ccc(-c5cn6ccccc6[n+]5C)cc4)cc3)cc2)cn2ccccc21 | > 58.2 µM
* CN(C)CCC(=O)/C=C\c1ccccc1 | 25 µM

* * *

tested on: CCRF-CEM leukemia; assay: NCI tumour cell line growth inhibition, 48 h; in the data active = GI50 below about 0.43 µM; inactive = the rest
Outcome codes: T = active, F = inactive

- CCC1=CC2CN(C1)Cc1c([nH]c3ccccc13)[C@@](C(=O)OC)(c1cc3c(cc1OC)N(C)[C@H]1[C@@](O)(C(=O)OC)[C@H](OC(C)=O)[C@]4(CC)C=CCN5CC[C@]31[C@@H]54)C2 (some centres undefined): T
- N#Cc1ccc(NC(=O)C(CC(=O)OCc2ccccc2)NC(=O)OCc2ccccc2)cc1 (centres undefined): F
- Oc1ccccc1-c1nn(CNc2ccccc2Cl)c(=S)o1: F
- COc1cc(NCCCCCCCNC(C)C)c2nccc(C)c2c1: F

* * *

test system: HOP-92 NSCLC; test: NCI tumour cell line growth inhibition, 48 h
Recorded TGI for the following compounds
reported metric: TGI

- COC(=O)C1(C)Cc2cc(OC(C)=O)c(OC(C)=O)cc2N1 (stereo not given): 8.69 µM
- CCON1CC(C(=O)OC)=C(O)C1=O: > 100 µM
- O=S(=O)(CCCl)c1ccc(Cl)cc1: 6.57 µM
- CC12CCCC3(CC(=O)C(C)(C)C3C(=O)C1)C2 (stereo not given): > 100 µM
- COc1ccc(-c2cc(-c3ccccc3)[nH]c(=S)c2C#N)cc1: 98.3 µM
- COc1cc2c(c(O)c1OC)C(=O)C(Cc1ccc(O)cc1)CO2 (stereo not given): > 100 µM
- C\C(=N/N=C1/C(=C\N(C)C)C(=O)NC(=O)N1C)c1ccc(Cl)cc1: > 100 µM
- S=c1cc(-c2ccc3c(c2)OCO3)s[nH]1: > 100 µM
- O=C(C(Cl)=C(N1CCOCC1)N1CCOCC1)C(Cl)Cl: > 100 µM
- COc1ccc(COCC[C@H](C)OC2OC(CO[Si](C)(C)C(C)(C)C)C(OC(=O)CCCN=[N+]=[N-])C(OC(=O)CCCN=[N+]=[N-])C2OC(=O)CCCN=[N+]=[N-])cc1 (stereo not given in full): > 100 µM
- CCNC(=O)c1noc(-c2cc(C(C)C)c(O)cc2O)c1-c1ccc(CN2CCOCC2)cc1: 0.0738 µM
- CC(C)(C)c1cc(C(=O)/C=C/c2ccc3c(c2)OCO3)cc(C(C)(C)C)c1O: > 100 µM
- COC(=O)c1cc(C#N)[nH]c1-c1cc(Br)cs1: 19.1 µM
- CCCCCCCCCCCCCCCC[N+]1(C)CCOCC1: 2.64 µM
- Cc1ccccc1NC(=O)C1C(=O)N(c2ccccc2C)C(=O)/C1=N\NC(N)=S (stereo not given): > 100 µM
- CCN(C(=O)/C=C/c1ccco1)c1ccccc1: > 100 µM
- N#Cc1nc(NC(=O)c2ccccc2C(=O)O)c(C#N)[nH]1: > 100 µM
- O=c1oc2ccccc2[n+]([O-])c1-c1ccccc1: > 100 µM
- COc1ccc2[nH]c3c(c2c1)[C@H](C)C[C@@H]1C(=O)N(c2ccccc2)C(=O)[C@H]31: 42.6 µM
- Cc1ccc(-c2nc3nc(-c4ccc(F)cc4)nc(N4CCCNCC4)c3o2)cc1: 2.88 µM
- O=[N+]([O-])c1ccc(-c2ccc(-c3csc(Nc4ccccc4)n3)o2)cc1: 37 µM
- CCOC(=O)C#Cc1ccccc1: 36.9 µM
- CC(=O)OCC1OC(N2C(=O)C(=O)c3ccccc32)C(OC(C)=O)C(OC(C)=O)C1OC(C)=O (stereo not given): > 100 µM
- Cc1ccc(/C=C2\Cc3c(C)cc(C)cc3C2=O)c(C(=O)O)c1: > 100 µM
- CC1(C)CC2C(=O)c3ccccc3NC2c2ccccc21 (stereo not given): > 100 µM
- CC(=O)c1ccc(O)c(CN(C2CCCCC2)C2CCCCC2)c1O: > 100 µM
- C=C(C)C1C/C=C(/C)CCCC2(CCC3=C(CC(C(=C)C)C/C=C(/C)CCC3)O2)C(=O)C1 (stereo not given): > 100 µM
- O=C1CSC2=NC3=C(COC/C3=C\c3ccc(Br)cc3)C(c3ccc(Br)cc3)N12 (stereo not given): > 100 µM
- O=c1oc2ccc(I)cc2c(=O)n1-c1ccc(Cl)cc1F: 0.726 µM
- O=C1NCN(c2ccccc2)C12CCN(CCCN1CCN(CCOC(c3ccc(F)cc3)c3ccc(F)cc3)CC1)CC2: 3.9 µM
- Cc1cnc2c(c1)C(=O)C1=C(C2=O)C2OC(=O)CC2OC1(C)C (stereo not given): 0.384 µM
- COc1ccc(OC)c(Cn2cc3c(c2-c2ccccc2)CCc2cnoc2-3)c1: > 100 µM
- C=C1c2nc3ccccc3n2C=C(c2ccc(Cl)cc2)N1c1ccc(OC)cc1: 43.6 µM
- CN(C)CCNC(=O)c1cccc2nc(-c3ccccc3)oc12: 59.4 µM
- CC(=O)N1CCC2(c3ccccc3N(C(C)=O)C2c2ccc(O)cc2)C1C(=O)O (stereo not given): > 100 µM
- CN1/C(=C\C=C\C2=[N+](C)c3ccccc3C2(C)C)C(C)(C)c2ccccc21: 0.58 µM
- CC(C)(C)C(=O)[CH-]C(=O)C(C)(C)C.CC(C)(C)C(=O)[CH-]C(=O)C(C)(C)C.CN(C)c1ccc([O-])cc1.CN(C)c1ccc([O-])cc1.[Ti+4]: > 100 µM
- C=C1C(=O)O[C@H]2[C@H]1CC/C(C=Nc1c(N)cc(C(F)(F)F)cc1Br)=C\CC[C@@]1(C)O[C@@H]21: 2.75 µM
- COC(=O)C1(C(=O)OC)CC(=O)c2cc3c(cc2-c2c(cc(OC)c(OC)c2OC)C1)OCO3: 167 µM
- O=C(O)c1ccccc1/C=N/N=C1c2ccccc2-c2ccccc21: > 100 µM
